Kindly supply the reported pEC50 values for the records listed here.
- System: IL-23p19
- procedureDetails: LPS induced IL23p19 in THP-1 cells (with IFNγ primed) assay
- Type: cell-based, Human
- conditionDetails: THP-1 cells, IFNγ primed, LPS 1 ug/mL, 18 hours, 10 pt; formate; read-out: IL23-p19 ELISA, THP1-IFNy, LPS, 10 pt EC50
Structures can show the parent of a compound that is named as a salt.
Numbers only, as −log10 of the molar value.

{"molecule": "CCOCCn1cc(NC(=O)c2ccc(-c3cn[nH]c3)o2)c(-c2nccs2)n1 [Compound I-118, formate]", "targetEntity": "IL-23p19", "pEC50": 7.17}
{"molecule": "O=C(Nc1cn(C(=O)N2CCOCC2)nc1-c1ccccn1)c1csc(-c2cn[nH]c2)n1 [II-131, formate]", "targetEntity": "IL-23p19", "pEC50": 6.44}
{"molecule": "O=C(Nc1cn(C2C=C(F)C2)nc1-c1ccccn1)c1csc(-c2cn[nH]c2)n1 (stereo not shown) [II-133, formate]", "targetEntity": "IL-23p19", "pEC50": 6.50}

// below: pEC50 requested for another molecule
Answer with the recorded pEC50 of O=C(Nc1cn(C2CCOCC2)nc1-c1nccs1)c1ccc(-c2cn[nH]c2)o1 [Compound I-60, formate] only.
6.76
